A collection of compounds and their measured pIC50
# Measured On: Diacylglycerol lipase-alpha (Homo sapiens)
# Sequence (Q9Y4D2 whole entry): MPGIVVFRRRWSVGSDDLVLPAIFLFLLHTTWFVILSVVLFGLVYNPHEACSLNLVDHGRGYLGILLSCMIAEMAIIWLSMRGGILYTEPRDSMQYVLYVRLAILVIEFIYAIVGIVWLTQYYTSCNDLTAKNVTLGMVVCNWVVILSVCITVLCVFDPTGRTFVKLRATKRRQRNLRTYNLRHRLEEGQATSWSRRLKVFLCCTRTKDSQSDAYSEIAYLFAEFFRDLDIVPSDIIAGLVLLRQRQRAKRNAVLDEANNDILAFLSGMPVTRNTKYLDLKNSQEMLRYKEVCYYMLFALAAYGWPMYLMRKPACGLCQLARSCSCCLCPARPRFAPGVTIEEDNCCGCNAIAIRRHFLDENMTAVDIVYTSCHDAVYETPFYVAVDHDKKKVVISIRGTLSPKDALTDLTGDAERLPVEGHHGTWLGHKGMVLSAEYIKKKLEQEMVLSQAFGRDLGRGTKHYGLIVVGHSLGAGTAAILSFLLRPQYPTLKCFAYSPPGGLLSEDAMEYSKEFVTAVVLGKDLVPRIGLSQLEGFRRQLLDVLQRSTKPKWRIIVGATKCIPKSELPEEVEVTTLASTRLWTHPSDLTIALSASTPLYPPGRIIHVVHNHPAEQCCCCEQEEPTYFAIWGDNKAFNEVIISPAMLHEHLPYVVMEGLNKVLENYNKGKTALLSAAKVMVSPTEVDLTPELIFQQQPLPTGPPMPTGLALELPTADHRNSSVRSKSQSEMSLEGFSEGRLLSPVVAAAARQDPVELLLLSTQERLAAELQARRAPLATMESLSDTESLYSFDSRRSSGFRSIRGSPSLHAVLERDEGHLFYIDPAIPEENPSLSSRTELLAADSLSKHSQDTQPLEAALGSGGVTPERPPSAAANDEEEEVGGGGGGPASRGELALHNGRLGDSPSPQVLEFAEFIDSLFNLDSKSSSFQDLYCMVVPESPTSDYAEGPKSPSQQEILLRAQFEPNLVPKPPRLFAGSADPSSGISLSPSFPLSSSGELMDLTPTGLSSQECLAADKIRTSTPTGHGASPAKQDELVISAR
# Assay Notes: Inhibition of human recombinant DAGL-alpha-mediated sn-1-[14C]oleoyl-2-arachidonoyl-glycerol hydrolysis to 2-AG overexpressed in african green monkey COS7 cell membrane by scintillation counting
pIC50: −log10 of the molar value.
Observable: pIC50

In [3]: df
Out[3]:
                            compound_string  observable  sign  observed_measurement
0  CCCCCCCCCCC[C@@H](C[C@@H]1OC(=O)[C@H]1CCCCCC)OC(=O)CNC(C)=O       pIC50     =                  6.10
1  CCCCCCCCCCC[C@@H](C[C@@H]1OC(=O)[C@H]1CCCCCC)OC(=O)[C@@H]1CCCN1C=O       pIC50     =                  5.96
2  CCCCCCCCCCC[C@@H](C[C@@H]1OC(=O)[C@H]1CCCCCC)OC(=O)[C@@H](NC(C)=O)[C@@H](C)CC       pIC50     =                  6.37
3  CCCCCCCCCCC[C@@H](C[C@@H]1OC(=O)[C@H]1CCCCCC)OC(=O)CCC(C)C       pIC50     <                  4.60
4  CCCCCCCCCCC[C@@H](C[C@@H]1OC(=O)[C@H]1CCCCCC)OC(=O)[C@H](CC(C)C)NC(=O)OC(C)(C)C       pIC50     <                  4.60
5  CCCCCCCCCCC[C@@H](C[C@@H]1OC(=O)[C@H]1CCCCCC)OC(=O)[C@@H](N)Cc1ccccc1       pIC50     =                  4.60
6  CCCCCCCCCCC[C@@H](C[C@@H]1OC(=O)[C@H]1CCCCCC)OC(=O)CCNC=O       pIC50     =                  6.22
7  CCCCCCCCCCC[C@@H](C[C@@H]1OC(=O)[C@H]1CCCCCC)OC(=O)[C@H](CC(C)C)NC(=O)OCc1ccccc1       pIC50     <                  4.60
8  CCCCCCCCCCC[C@@H](C[C@@H]1OC(=O)[C@H]1CCCCCC)OC(=O)[C@@H](N)CC(C)C       pIC50     <                  4.60
9  CCCCCCCCCCC[C@@H](C[C@@H]1OC(=O)[C@H]1CCCCCC)OC(=O)[C@@H](CC(C)C)NC(=O)OCc1ccccc1       pIC50     <                  4.60

====

# Measured On: Fatty-acid amide hydrolase 1 (Rattus norvegicus)
# Sequence (P97612 whole entry): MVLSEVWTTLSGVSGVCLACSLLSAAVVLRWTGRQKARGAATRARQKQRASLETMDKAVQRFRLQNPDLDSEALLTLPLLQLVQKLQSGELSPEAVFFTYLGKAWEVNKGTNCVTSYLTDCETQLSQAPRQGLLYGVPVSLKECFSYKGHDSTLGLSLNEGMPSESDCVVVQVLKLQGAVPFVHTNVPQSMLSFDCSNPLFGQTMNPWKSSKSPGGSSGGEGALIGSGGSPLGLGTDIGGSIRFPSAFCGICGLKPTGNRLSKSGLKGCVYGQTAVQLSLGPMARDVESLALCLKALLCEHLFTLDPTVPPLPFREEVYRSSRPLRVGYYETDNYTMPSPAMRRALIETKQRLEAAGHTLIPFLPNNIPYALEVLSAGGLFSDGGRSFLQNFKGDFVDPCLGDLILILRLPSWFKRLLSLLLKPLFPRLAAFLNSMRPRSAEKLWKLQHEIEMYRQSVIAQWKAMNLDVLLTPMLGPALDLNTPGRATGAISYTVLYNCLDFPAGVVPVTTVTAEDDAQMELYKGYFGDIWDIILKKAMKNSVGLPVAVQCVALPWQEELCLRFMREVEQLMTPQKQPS
# Assay Notes: Inhibition of FAAH-mediated [14C]anandamide hydrolysis in rat brain membrane
pIC50: −log10 of the molar value.
Observable: pIC50

In [3]: df
Out[3]:
                            compound_string                               measured_on  observable  sign  observed_measurement
0  CCCCCCCCCCC[C@@H](C[C@@H]1OC(=O)[C@H]1CCCCCC)OC(=O)[C@@H]1CCCN1C=O  Fatty-acid amide hydrolase 1 (Rattus norvegicus)       pIC50     =                  5.47
1  CCCCCCCCCCC[C@@H](C[C@@H]1OC(=O)[C@H]1CCCCCC)OC(=O)[C@H](CC(C)C)NC(=O)OCc1ccccc1  Fatty-acid amide hydrolase 1 (Rattus norvegicus)       pIC50     <                  4.30
2  CCCCCCCCCCC[C@@H](C[C@@H]1OC(=O)[C@H]1CCCCCC)OC(=O)CNC(=O)OCc1ccccc1  Fatty-acid amide hydrolase 1 (Rattus norvegicus)       pIC50     <                  4.30
3  CCCCCCCCCCC[C@@H](C[C@@H]1OC(=O)[C@H]1CCCCCC)OC(=O)CNC=O  Fatty-acid amide hydrolase 1 (Rattus norvegicus)       pIC50     =                  5.52
4  CCCCCCCCCCC[C@@H](C[C@@H]1OC(=O)[C@H]1CCCCCC)OC(=O)CCC(C)C  Fatty-acid amide hydrolase 1 (Rattus norvegicus)       pIC50     =                  4.98
